Numbers sourced from patent US5192756A.

Parameter 'readout' = MIC; parameter 'system' = E. coli.

- compound: "C[C@H](CCC(=O)NCCS(=O)(=O)O)[C@H]1CC[C@H]2[C@@H]3CC[C@@H]4C[C@H](OS(=O)(=O)O)CC[C@]4(C)[C@H]3CC[C@]12C [Taurolithocholic Acid 3-sulfate, taurolithocholic acid 3-sulfate]"
  MIC: "> 500 µg/mL"
- compound: "CC1(C)S[C@@H]2[C@H](NC(=O)[C@H](N)c3ccccc3)C(=O)N2[C@H]1C(=O)O [Ampicillin, ampicillin]"
  MIC: "2 to 4 µg/mL"
- compound: "NCCCCNCCCN [Spermidine]"
  MIC: "> 500 µg/mL"

----------
// reported MIC per item
tested on: Proteus vulgaris; assay: Minimal inhibitory concentration, Proteus vulgaris; type: cell-based; details: ATCC13315; Proteus vulgaris ATCC 13315; 1/2×TSB, 37° C., 18 to 24 hours

- compound: "C[C@H]1[C@H]2CC[C@H]3[C@@H]4CC=C5C[C@@H](N(C)C)CC[C@]5(C)[C@H]4CC[C@]23CN1C [Conessine]"
  MIC: "> 500 µg/mL"
- compound: "NCCCCNCCCN [Spermidine]"
  MIC: "> 500 µg/mL"
- compound: "C[C@H](CCC(=O)NCCS(=O)(=O)O)[C@H]1CC[C@H]2[C@@H]3CC[C@@H]4C[C@H](OS(=O)(=O)O)CC[C@]4(C)[C@H]3CC[C@]12C [Taurolithocholic Acid 3-sulfate, taurolithocholic acid 3-sulfate]"
  MIC: "> 500 µg/mL"
- compound: "CC1(C)S[C@@H]2[C@H](NC(=O)[C@H](N)c3ccccc3)C(=O)N2[C@H]1C(=O)O [Ampicillin, ampicillin]"
  MIC: "8 to 16 µg/mL"
- compound: "C[C@H](CCC(=O)NCCC[N+](C)(C)CCCS(=O)(=O)[O-])[C@H]1CC[C@H]2[C@@H]3[C@H](O)C[C@@H]4C[C@H](O)CC[C@]4(C)[C@H]3C[C@H](O)[C@]12C [CHAPS, dihydrate]"
  MIC: "> 500 µg/mL"
- compound: "CC(C)C(CC[C@@H](C)[C@H]1CC[C@H]2[C@@H]3[C@H](O)C[C@H]4C[C@@H](NCCCNCCCCN)CC[C@]4(C)[C@H]3CC[C@]12C)OS(=O)(=O)O (stereo partly drawn) [Squalamine]"
  MIC: "4 to 8 µg/mL"

----------
test system: Staph. aureus
measured metric: MIC

- molecule: "C[C@H](CCC(=O)NCCS(=O)(=O)O)[C@H]1CC[C@H]2[C@@H]3CC[C@@H]4C[C@H](OS(=O)(=O)O)CC[C@]4(C)[C@H]3CC[C@]12C [Taurolithocholic Acid 3-sulfate, taurolithocholic acid 3-sulfate]"
  value observed: "> 500 µg/mL"
- molecule: "C[C@H](CCC(=O)NCCC[N+](C)(C)CCCS(=O)(=O)[O-])[C@H]1CC[C@H]2[C@@H]3[C@H](O)C[C@@H]4C[C@H](O)CC[C@]4(C)[C@H]3C[C@H](O)[C@]12C [CHAPS, dihydrate]"
  value observed: "> 500 µg/mL"
- molecule: "C[C@H]1[C@H]2CC[C@H]3[C@@H]4CC=C5C[C@@H](N(C)C)CC[C@]5(C)[C@H]4CC[C@]23CN1C"
  value observed: "> 500 µg/mL"
- molecule: "NCCCCNCCCN"
  value observed: "> 500 µg/mL"
- molecule: "CC(C)C(CC[C@@H](C)[C@H]1CC[C@H]2[C@@H]3[C@H](O)C[C@H]4C[C@@H](NCCCNCCCCN)CC[C@]4(C)[C@H]3CC[C@]12C)OS(=O)(=O)O (stereo partly drawn)"
  value observed: "1 to 2 µg/mL"
- molecule: "CC1(C)S[C@@H]2[C@H](NC(=O)[C@H](N)c3ccccc3)C(=O)N2[C@H]1C(=O)O"
  value observed: "1 µg/mL"

----------
Measured MIC (E. coli)

- compound: "CC(C)C(CC[C@@H](C)[C@H]1CC[C@H]2[C@@H]3[C@H](O)C[C@H]4C[C@@H](NCCCNCCCCN)CC[C@]4(C)[C@H]3CC[C@]12C)OS(=O)(=O)O (stereo partly drawn) [Squalamine]"
  MIC: "1 to 2 µg/mL"
- compound: "C[C@H](CCC(=O)NCCC[N+](C)(C)CCCS(=O)(=O)[O-])[C@H]1CC[C@H]2[C@@H]3[C@H](O)C[C@@H]4C[C@H](O)CC[C@]4(C)[C@H]3C[C@H](O)[C@]12C [CHAPS, dihydrate]"
  MIC: "> 500 µg/mL"
- compound: "C[C@H]1[C@H]2CC[C@H]3[C@@H]4CC=C5C[C@@H](N(C)C)CC[C@]5(C)[C@H]4CC[C@]23CN1C [Conessine]"
  MIC: "> 500 µg/mL"

----------
tested on: Paramecium caudatum
measured metric: MIC

- compound: "CC1(C)S[C@@H]2[C@H](NC(=O)[C@H](N)c3ccccc3)C(=O)N2[C@H]1C(=O)O [Ampicillin, ampicillin]"
  value observed: "> 65 µg/mL"
- compound: "NCCCCNCCCN [Spermidine]"
  value observed: "> 260 µg/mL"
- compound: "C[C@H]1[C@H]2CC[C@H]3[C@@H]4CC=C5C[C@@H](N(C)C)CC[C@]5(C)[C@H]4CC[C@]23CN1C [Conessine]"
  value observed: "16 to 33 µg/mL"
- compound: "C[C@H](CCC(=O)NCCS(=O)(=O)O)[C@H]1CC[C@H]2[C@@H]3CC[C@@H]4C[C@H](OS(=O)(=O)O)CC[C@]4(C)[C@H]3CC[C@]12C [Taurolithocholic Acid 3-sulfate, taurolithocholic acid 3-sulfate]"
  value observed: "> 260 µg/mL"
- compound: "C[C@H](CCC(=O)NCCC[N+](C)(C)CCCS(=O)(=O)[O-])[C@H]1CC[C@H]2[C@@H]3[C@H](O)C[C@@H]4C[C@H](O)CC[C@]4(C)[C@H]3C[C@H](O)[C@]12C [CHAPS, dihydrate]"
  value observed: "> 260 µg/mL"
- compound: "CC(C)C(CC[C@@H](C)[C@H]1CC[C@H]2[C@@H]3[C@H](O)C[C@H]4C[C@@H](NCCCNCCCCN)CC[C@]4(C)[C@H]3CC[C@]12C)OS(=O)(=O)O (stereo partly drawn) [Squalamine]"
  value observed: "4 to 8 µg/mL"
